test system: RSV strain A2; assay: RSV antiviral cytoprotection assay in Hep2 cells (96-well and 384-well format, Cell TiterGlo read-out); format: cell-based, Respiratory Syncytial Virus (RSV); details: human respiratory syncytial virus, HEp-2, 0.5 uM; RSV-induced cytopathic effect in Hep2 cells; calculated from fitted dose response curve, normalized to 0% and 100%
Assay Endpoint: inhibition at 0.5 µM (%)
Response body: numeric value in %, unit text excluded.

Reference set (2 entries):
- Compound Smiles: "Cc1cn2nc([C@@H]3CCCCN3C(=O)c3cc(Cl)ccc3NS(C)(=O)=O)cc2nc1N1CCCCN1"
  Target Of Assay: "RSV strain A2"
  inhibition at 0.5 µM [%]: 95
- Compound Smiles: "C[C@@H]1CN(c2cc(N3CCC3)nc3cc([C@@H]4CCCCN4C(=O)c4cc(Cl)ccc4NS(C)(=O)=O)nn23)C[C@H](C)N1"
  Target Of Assay: "RSV strain A2"
  inhibition at 0.5 µM [%]: 100

Identify the measured inhibition at 0.5 µM of `CC#Cc1cc(N2CCOCC2)n2nc([C@@H]3CCCCN3C(=O)c3cc(Cl)ccc3NS(C)(=O)=O)cc2n1` for RSV strain A2.
100

Next compound: `Cc1cn2nc([C@@H]3CCCCN3C(=O)c3cc(Cl)ccc3NS(C)(=O)=O)cc2nc1N1CC(OC(=O)CCC(=O)O)C1`
99

Next compound: `Cc1ccc(Cl)cc1C(=O)N1CCCC[C@H]1c1cc2nc(N3CC[C@H](N)C3)c(C)cn2n1`
99

Next compound: `CS(=O)(=O)Nc1ccc(Cl)cc1C(=O)N1CCCC[C@H]1c1cc2nc(N3CC[C@@H](O)C3)cc(N3CCOCC3)n2n1`
95

Next compound: `Cc1cn2nc([C@@H]3CCCCN3C(=O)c3cnn(C)c3C)cc2nc1N1CC[C@H](N)C1`
63
